Assay Summary: Bioavailability studies: recovery in feces and urine
Type: in vivo, mouse
Study Conditions: female, CD-1, mouse, feces, oral, 600 mg/kg, from Feces; Dose 600 mg/kg; individual replicates; read-out: LP-182 Bioavailability (%)
Quantity Name: Fa (%)

{"Test Smiles": "O=C(NOCCOCCOCCOCCC(=O)N1CCN(c2cnc3ccc(-c4cnc(Cl)c(NS(=O)(=O)c5ccc(F)cc5)c4)cc3n2)CC1)c1ccc(F)c(F)c1Nc1ccc(I)cc1F", "Quantity Name": "Fa", "Unit Of Measurement": "%", "Numeric Value": 79.5}

----------
Assay Summary: Pharmacokinetic analysis of plasma after intravenous and oral dosing
Study Conditions: female, CD-1, mouse, plasma, po, 400 mg kg^−1, Concentration (ng/mL), mice, single p.o. LP-182 400 mg kg^−1, 16 h; analyte = label; individual animals

{"Compound": "O=S(=O)(Nc1cc(-c2ccc3ncc(N4CCNCC4)nc3c2)cnc1Cl)c1ccc(F)cc1 [LP-527]", "concentration at 16 h": "19 ng/mL"}
{"Compound": "O=C(NOCCO)c1ccc(F)c(F)c1Nc1ccc(I)cc1F [PD0316684, reference compound]", "concentration at 16 h": "68.3 ng/mL"}

----------
Assay Summary: Pharmacokinetic analysis of plasma after intravenous and oral dosing
Study Conditions: female, CD-1, mouse, plasma, iv, 15 mg kg^−1, Concentration (ng/mL), mice, single i.v. LP-182 15 mg kg^−1, 0.167 h; analyte = label; individual animals
Quick list: concentration at 0.167 h per entry.

{"Compound": "O=C(NOCCO)c1ccc(F)c(F)c1Nc1ccc(I)cc1F [PD0316684, reference compound]", "concentration at 0.167 h [ng/mL]": 771}
{"Compound": "O=S(=O)(Nc1cc(-c2ccc3ncc(N4CCNCC4)nc3c2)cnc1Cl)c1ccc(F)cc1", "concentration at 0.167 h [ng/mL]": 15.5}

----------
Assay Summary: Pharmacokinetic analysis of plasma after intravenous and oral dosing
Study Conditions: female, CD-1, mouse, plasma, iv, 15 mg/kg

{"Compound": "O=C(NOCCOCCOCCOCCC(=O)N1CCN(c2cnc3ccc(-c4cnc(Cl)c(NS(=O)(=O)c5ccc(F)cc5)c4)cc3n2)CC1)c1ccc(F)c(F)c1Nc1ccc(I)cc1F [LP-182]", "half-life, h": 7.9}

----------
Assay Summary: Pharmacokinetic analysis of plasma after intravenous and oral dosing
Study Conditions: female, CD-1, mouse, plasma, iv, 15 mg kg^−1, Concentration, Figure 6d; Time 24 h; individual replicates
Quantity Name: concentration at 24 h

{"Compound": "O=C(NOCCO)c1ccc(F)c(F)c1Nc1ccc(I)cc1F [PD0316684, reference compound]", "Result": "3.46 ng/mL"}

----------
Quick list: concentration at 1 h per entry.
Assay Summary: Pharmacokinetic analysis of plasma after intravenous and oral dosing
Study Conditions: female, CD-1, mouse, plasma, iv, 15 mg kg^−1, Concentration; Time 1 h; individual animals; Supplementary Figure 12b
Quantity Name: concentration at 1 h (ng/mL)

{"Molecule": "O=C(O)CCOCCOCCOCCONC(=O)c1ccc(F)c(F)c1Nc1ccc(I)cc1F", "Numeric Value": 694}
{"Molecule": "O=C(O)c1ccc(F)c(F)c1Nc1ccc(I)cc1F [PD315209, reference compound]", "Numeric Value": 783}

----------
Assay Summary: Pharmacokinetic analysis of plasma after intravenous and oral dosing
Study Conditions: female, CD-1, mouse, plasma, iv, 15 mg kg^−1, Concentration (ng/mL), mice, single i.v. LP-182 15 mg kg^−1, 4 h; analyte = label; individual animals
Quantity Name: concentration at 4 h

{"Compound": "O=C(NOCCOCCOCCOCCC(=O)N1CCN(c2cnc3ccc(-c4cnc(Cl)c(NS(=O)(=O)c5ccc(F)cc5)c4)cc3n2)CC1)c1ccc(F)c(F)c1Nc1ccc(I)cc1F", "Result": "83.2 ng/mL"}
{"Compound": "O=C(NOCCO)c1ccc(F)c(F)c1Nc1ccc(I)cc1F [PD0316684, reference compound]", "Result": "18.6 ng/mL"}

----------
Assay Summary: Pharmacokinetic analysis of plasma after intravenous and oral dosing
Study Conditions: female, CD-1, mouse, plasma, iv, 15 mg kg^−1, Concentration; Time 0.167 h; individual animals; Supplementary Figure 12a

{"Compound": "O=C(O)c1ccc(F)c(F)c1Nc1ccc(I)cc1F [PD315209, reference compound]", "concentration at 0.167 h (ng/mL)": 306}

----------
Assay Summary: Pharmacokinetic analysis of plasma after intravenous and oral dosing
Study Conditions: female, CD-1, mouse, plasma, po, 200 mg kg^−1, Concentration; Time 0.5 h; individual animals; Supplementary Figure 12a
Quantity Name: concentration at 0.5 h (ng/mL)

{"Compound": "O=C(O)c1ccc(F)c(F)c1Nc1ccc(I)cc1F [PD315209, reference compound]", "Numeric Value": 968}

----------
Quick list: concentration at 2 h per entry.
Assay Summary: Pharmacokinetic analysis of plasma after intravenous and oral dosing
Study Conditions: female, CD-1, mouse, plasma, iv, 15 mg kg^−1, Concentration (ng/mL), mice, single i.v. LP-182 15 mg kg^−1, 2 h; analyte = label; individual animals
Quantity Name: concentration at 2 h

{"Molecule": "O=C(NOCCO)c1ccc(F)c(F)c1Nc1ccc(I)cc1F [PD0316684, reference compound]", "Result": "58.1 ng/mL"}
{"Molecule": "O=C(NOCCOCCOCCOCCC(=O)N1CCN(c2cnc3ccc(-c4cnc(Cl)c(NS(=O)(=O)c5ccc(F)cc5)c4)cc3n2)CC1)c1ccc(F)c(F)c1Nc1ccc(I)cc1F", "Result": "275 ng/mL"}

----------
Assay Summary: in vivo
Study Conditions: female, CD-1, mouse, po

{"Test Smiles": "COc1ccc(-c2ccc3c(N4CCOC[C@@H]4C)nc(N4CCOC[C@@H]4C)nc3n2)cc1CO", "Unit Of Measurement": "ng/mL", "concentration at 0.167 h": 626}

----------
Assay Summary: Pharmacokinetic analysis of plasma after intravenous and oral dosing
Study Conditions: female, CD-1, mouse, plasma, iv, 15 mg kg^−1, Concentration, Figure 6d; Time 4 h; individual replicates

{"Compound": "O=C(NOCCO)c1ccc(F)c(F)c1Nc1ccc(I)cc1F [PD0316684, reference compound]", "concentration at 4 h [ng/mL]": 39.4}

----------
Assay Summary: Pharmacokinetic analysis of plasma after intravenous and oral dosing
Study Conditions: female, CD-1, mouse, plasma, iv, 15 mg kg^−1, Concentration, Figure 6d; Time 0.5 h; individual replicates
Quantity Name: concentration at 0.5 h (ng/mL)

{"Compound": "O=C(NOCCO)c1ccc(F)c(F)c1Nc1ccc(I)cc1F [PD0316684, reference compound]", "Numeric Value": 241}

----------
Assay Summary: Pharmacokinetic analysis of plasma after intravenous and oral dosing
Study Conditions: female, CD-1, mouse, plasma, po, 200 mg kg^−1, Concentration; Time 1 h; individual animals; Supplementary Figure 12b

{"Compound": "O=C(O)c1ccc(F)c(F)c1Nc1ccc(I)cc1F [PD315209, reference compound]", "Unit Of Measurement": "ng/mL", "concentration at 1 h": 841}

----------
Assay Summary: Pharmacokinetic analysis of plasma after intravenous and oral dosing
Study Conditions: female, CD-1, mouse, plasma, iv, 15 mg kg^−1, Concentration, Figure 6d; Time 0.167 h; individual replicates
Quantity Name: concentration at 0.167 h (ng/mL)

{"Compound": "O=C(NOCCO)c1ccc(F)c(F)c1Nc1ccc(I)cc1F [PD0316684, reference compound]", "Numeric Value": 234}

----------
Quick list: concentration at 1 h per entry.
Assay Summary: Pharmacokinetic analysis of plasma after intravenous and oral dosing
Study Conditions: female, CD-1, mouse, plasma, po, 400 mg kg^−1, Concentration, Supplementary Figure 6a; Time 1 h; individual replicates

{"Compound": "O=C(NOCCOCCOCCOCCC(=O)N1CCN(c2cnc3ccc(-c4cnc(Cl)c(NS(=O)(=O)c5ccc(F)cc5)c4)cc3n2)CC1)c1ccc(F)c(F)c1Nc1ccc(I)cc1F", "concentration at 1 h / ng/mL": 1240}
{"Compound": "O=C(O)c1ccc(F)c(F)c1Nc1ccc(I)cc1F [PD315209, reference compound]", "concentration at 1 h / ng/mL": 1700}

----------
Assay Summary: Pharmacokinetic analysis of plasma after intravenous and oral dosing
Study Conditions: female, CD-1, mouse, plasma, iv, 15 mg kg^−1, Concentration, Figure 6d; Time 1 h; individual replicates

{"Molecule": "O=C(NOCCO)c1ccc(F)c(F)c1Nc1ccc(I)cc1F [PD0316684, reference compound]", "concentration at 1 h": "112 ng/mL"}
